- TEST DETAILS: yeast display, Sf9 membrane polyspecificity reagent, FACS + sequencing; frameworks hold sequencing errors
ENDPOINT LABEL: polyreactivity (PSR sort gate)

Task item: So what's the measured polyreactivity (PSR sort gate) for this one? `QVQLVESGGGLVQAGGSLRLSSAASGRTGVNAMGWDRHAPGKERELGAAINNGDSTYYADSVKGRFTISRDNAKNTVYLQMNSLTPEDTAVYDCAAGLDEGDYWQESDYWGQGTQVTVSS`
Reply: low polyreactivity

Task item: So what's the measured polyreactivity (PSR sort gate) for this one? `QVQLVESGGGVVQAGGSLRLSCAASGRIFGPYTMGWYRQAPGKERELVARISRRGGSTYYADSVKGRFTISRDNAKNTVYLQMNSLKPEDTAVYYCARSQAVYDGWFAKFGYWGQGTQVTVSS`
Reply: low polyreactivity

====

- TEST DETAILS: yeast display, Sf9 membrane polyspecificity reagent, FACS + sequencing; frameworks hold sequencing errors
ENDPOINT LABEL: polyreactivity (PSR sort gate)

Task item: So what's the measured polyreactivity (PSR sort gate) for this one? `QVQLVESGGGLVQAGGSLRLSCAASGFIFAEYAMGWYRQAPGKERELVAAITSGGSTSYADSVKGRFTISRDNAKNTVYLQMNSLIPEDTAVYYCAATWYYHYNDWKHWYEYGYWGQGTQVTVSS`
Reply: low polyreactivity

Task item: So what's the measured polyreactivity (PSR sort gate) for this one? `QVQLVESGGGLVQAGGSLRLSCAASGSTFDFNAMGWYRQAPGKERELVAAITYSGGSTYYADSVKGRFTISRDNAKNTVYLQMNSLKPVDTAVYYCAAEDVYPGSIDMDYWGQGTQVTVSS`
Reply: low polyreactivity

====

- TEST DETAILS: yeast display, Sf9 membrane polyspecificity reagent, FACS + sequencing; frameworks hold sequencing errors
ENDPOINT LABEL: polyreactivity (PSR sort gate)

Sample answers from the record:
Task item: So what's the measured polyreactivity (PSR sort gate) for this one? `QVQLVESGGGLVQAGGSLRISCAASGRIFHANAMGWYRQAPGKERELLAGISRNGGRTYYADSVKGRFTISRDNAKYTVYLQMNSLKPEDTAVYYCAADGLTGSKYRATGYYWGQGTQVTVSS`
Reply: high polyreactivity

Task item: So what's the measured polyreactivity (PSR sort gate) for this one? `QVQLVDSGGGLVQEGGRLRLSCAASGSIYDQYDMGWYRQAPGKERELVAAISNRGGCTYYADSVKGRFTISRDNAKNTVYLQMNSLKPEDTAVYYCAARKYWGYGTRYFYWGQGTQVTVSS`
Reply: high polyreactivity

Task item: So what's the measured polyreactivity (PSR sort gate) for this one? `QVQLVESGGGLVQAGGSLRLSCAASGRIFRWYAMGWYRQAPGKERELVAAISYSGGSTYYADSVKGRFTISRDNAKNTVYLQMNSLKPEDTAVYYCAAATYYKFDYWGQGTQVTVSW`
Reply: high polyreactivity

Task item: So what's the measured polyreactivity (PSR sort gate) for this one? `QVQLVETGGGLVQAGGSLRVSCAASGSIFVGYPMGWYRQAPGKERELVAAISSNGGSTYYADSVKGRFTISRDNAKNTVYVQMNSLKPEDTAVYYCAAGVRRVYASGHGAYGYWGQGTQVTVSS`
Reply: low polyreactivity

Next:
Task item: So what's the measured polyreactivity (PSR sort gate) for this one? `QVQIVESGGGLVQAGGSLRLSCAASGRTFTYYAMGWYRQAPGKERELVARIRSGGSTYYADSVKGRFTISRDNEKNTVYLQMNSLKPEDTAVYYCNADRRSAGLYNYWGQGTQVTVSS`
Reply: low polyreactivity
